B1: IQUB (parent)
chain: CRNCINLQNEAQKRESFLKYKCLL

Variants of: B1
Assay: protein stability index of a GFP-peptide fusion (GPS, HEK-293T) (PSI 1-6); higher = more stable;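 further: lentivirally expressed fusions sorted by FACS into six bins by GFP to DsRed ratio, PSI derived from sequencing read proportions per bin multiplied by bin number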
Settings: c terminus: a fixed tail appended
Below, each entry is listed with its recorded protein stability index.
// response body must contain only the number

# example entries with known answers
L23V	3.23
C1P	2.19
S16W	1.69
Y20K	2.46
L24D	2.81
L23M	1.77

Ask | Given the variant N9V , what is its reported protein stability index?
Reply | 1.53

Ask | Moving on to F17G
Reply | 2.84

Ask | Also check K13F
Reply | 2.35

Ask | Field entry: N9C
Reply | 1.57

Ask | Same question for L18V please.
Reply | 1.88
